TGT: Lysophosphatidic acid receptor 1 (Homo sapiens)
PROTOCOL SUMMARY: Inhibition of LPA-induced calcium transients in RH7777 rat hepatoma cells expressing LPA1 receptor
Assay type: functional, cell-based
PARAMETER MEASURED: EC50 (nM)
One number for each entry, in nM.

[
  {
    "ENTRY SMILES": "CCCCCCCC/C=C/CCCCCCCCOP(O)(O)=S",
    "PARAMETER MEASURED": "EC50",
    "NUMERIC READOUT": 193
  }
]

Next compound, please.
Please supply the value of reported EC50 for the item `CCCCCCCCCCCCCCCC(=O)N[C@@H](COP(=O)(O)O)C(=O)O`
1850

* * *

TGT: Lysophosphatidic acid receptor 2 (Homo sapiens, UniProt Q9HBW0)
Sequence (Q9HBW0 whole entry): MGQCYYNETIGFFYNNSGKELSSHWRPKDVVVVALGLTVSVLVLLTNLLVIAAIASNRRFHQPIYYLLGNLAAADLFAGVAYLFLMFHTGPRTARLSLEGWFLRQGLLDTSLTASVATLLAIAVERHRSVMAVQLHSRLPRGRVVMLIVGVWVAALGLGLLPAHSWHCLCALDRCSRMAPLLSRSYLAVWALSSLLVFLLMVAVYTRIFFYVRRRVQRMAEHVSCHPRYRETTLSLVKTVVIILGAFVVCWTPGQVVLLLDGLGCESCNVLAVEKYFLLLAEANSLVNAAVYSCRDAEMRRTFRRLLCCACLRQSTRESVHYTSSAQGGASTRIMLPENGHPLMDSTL
PROTOCOL SUMMARY: Inhibition of LPA-induced calcium transients in RH7777 rat hepatoma cells expressing LPA2 receptor
Type: functional, cell-based
Assignment: determine reported pEC50 for the given compounds.
One number for each entry, as −log10 of the molar value.

Examples with answers:
[
  {
    "ENTRY SMILES": "CC/C=C/CCCCCCCCOP(O)(O)=S",
    "PARAMETER MEASURED": "pEC50",
    "NUMERIC READOUT": 6.17
  },
  {
    "ENTRY SMILES": "CCCC/C=C/CCCCCCCCOP(O)(O)=S",
    "PARAMETER MEASURED": "pEC50",
    "NUMERIC READOUT": 6.32
  },
  {
    "ENTRY SMILES": "CC/C=C/CCCCCCCCCCOP(=O)(O)O",
    "PARAMETER MEASURED": "pEC50",
    "NUMERIC READOUT": 5.39
  },
  {
    "ENTRY SMILES": "CCCCCCCC/C=C/CCCCCCCCOP(O)(O)=S",
    "PARAMETER MEASURED": "pEC50",
    "NUMERIC READOUT": 6.61
  }
]

Continue with the compound presented below.
Provide one value: measured pEC50 of `CCCC/C=C/CCCCCCCCOP(=O)(O)O`
6.40

* * *

Organism: Homo sapiens
PROTOCOL SUMMARY: Concentration of compound (after 5 min of addition) that induce LPA expressed in human platelets
Format: functional
PARAMETER MEASURED: pEC50
Numbers only, as −log10 of the molar value.

Given `CC/C=C/CCCCCCCCOP(O)(O)=S` , respond with its pEC50.
6.00

* * *

PROTOCOL SUMMARY: Inhibition of LPA-induced calcium transients in PC-3 cells
Type: functional, cell-based, Homo sapiens
RUN CONDITIONS: Homo sapiens, PC-3; read-out: IC50
PARAMETER MEASURED: pIC50
One number for each entry, as −log10 of the molar value.

Each compound below has a recorded value; state its pIC50.
1. CCCCCCCCCCCCCCP(=O)(O)O
2. CC/C=C/CCCCCCCCOP(=O)(O)O
3. CCCC/C=C/CCCCCCCCOP(O)(O)=S
4. Cc1noc(-c2ccc(CSCCC(=O)O)cc2)c1NC(=O)OC(C)c1ccccc1Cl (stereo unspecified)
5. CCCC/C=C/CCCCCCCCOP(=O)(O)O
6. CCCCC/C=C/CCCOP(=O)(O)O

1: 5.01; 2: 6.04; 3: 6.03; 4: 5.47; 5: 6.62; 6: 5.89

* * *

TGT: Lysophosphatidic acid receptor 3 (Homo sapiens)
Sequence (Q9UBY5 whole entry): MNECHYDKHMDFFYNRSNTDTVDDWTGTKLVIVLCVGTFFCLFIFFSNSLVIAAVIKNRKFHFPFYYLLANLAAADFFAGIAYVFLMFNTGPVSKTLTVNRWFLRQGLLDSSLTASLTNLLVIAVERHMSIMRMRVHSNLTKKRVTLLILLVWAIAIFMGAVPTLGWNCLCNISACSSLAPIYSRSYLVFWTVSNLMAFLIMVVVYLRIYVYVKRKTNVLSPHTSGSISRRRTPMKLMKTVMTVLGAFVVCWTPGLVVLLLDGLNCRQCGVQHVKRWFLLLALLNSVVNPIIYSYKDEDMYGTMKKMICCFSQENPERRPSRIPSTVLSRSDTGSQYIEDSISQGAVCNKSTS
PROTOCOL SUMMARY: Inhibition of LPA-induced calcium transients in RH7777 rat hepatoma cells expressing LPA3 receptor
Type: functional, cell-based
PARAMETER MEASURED: pEC50
Numbers only, as −log10 of the molar value.

List reported pEC50 for each of these molecules:
1. CCCCCCCCCCCCCCCC(=O)N[C@@H](COP(=O)(O)O)C(=O)O
2. CCCCCCCC/C=C/CCCCCCCCOP(O)(O)=S

5.80
6.26

* * *

TGT: Lysophosphatidic acid receptor 2 (Homo sapiens, UniProt Q9HBW0)
PROTOCOL SUMMARY: Inhibition of LPA-induced calcium transients in RH7777 rat hepatoma cells expressing LPA2 receptor; No effect
Type: functional, cell-based
PARAMETER MEASURED: EC50

[
  {
    "MOLECULE": "CCCCCCCCCCCCCCCCCCP(=O)(O)O",
    "EC50": "Not Active"
  },
  {
    "MOLECULE": "CCCCCCCCCCP(=O)(O)O",
    "EC50": "Not Active"
  },
  {
    "MOLECULE": "CCCCCCCCCCCCCCP(=O)(O)O",
    "EC50": "Not Active"
  },
  {
    "MOLECULE": "Cc1noc(-c2ccc(CSCCC(=O)O)cc2)c1NC(=O)OC(C)c1ccccc1Cl (centres undefined)",
    "EC50": "Not Active"
  },
  {
    "MOLECULE": "CCCCCCCCCCCCP(=O)(O)O",
    "EC50": "Not Active"
  }
]

Each molecule below has a reported value. Please supply its EC50.
1. CCCCCCCC/C=C/CCCCCCCCOP(=O)(O)O
2. CCCCCCCC(=O)OC[C@H](COP(=O)(O)OP(=O)(O)O)OC(=O)CCCCCCC
3. CCCCCCCCCCCCCCOP(=O)(O)O
4. CCCCCCCCCCCCCCCC(=O)N[C@@H](COP(=O)(O)O)C(=O)O

Not Active
Not Active
Not Active
Not Active

* * *

TGT: Lysophosphatidic acid receptor 2 (Homo sapiens, UniProt Q9HBW0)
PROTOCOL SUMMARY: Binding affinity for Lysophosphatidic acid receptor 2 expressed in RH7777 rat hepatoma cells
Assay type: cell-based
RUN CONDITIONS: read-out: Ki
PARAMETER MEASURED: Ki (µM)
Answers are plain numbers, in µM.

In one line, give reported Ki of the entry `CCCCCCCCCCCCCCP(=O)(O)O` .
3.55

* * *

Would you kindly list IC50 for each of these compounds?
TGT: Lysophosphatidic acid receptor 1 (Homo sapiens, UniProt Q92633)
Sequence (Q92633 whole entry): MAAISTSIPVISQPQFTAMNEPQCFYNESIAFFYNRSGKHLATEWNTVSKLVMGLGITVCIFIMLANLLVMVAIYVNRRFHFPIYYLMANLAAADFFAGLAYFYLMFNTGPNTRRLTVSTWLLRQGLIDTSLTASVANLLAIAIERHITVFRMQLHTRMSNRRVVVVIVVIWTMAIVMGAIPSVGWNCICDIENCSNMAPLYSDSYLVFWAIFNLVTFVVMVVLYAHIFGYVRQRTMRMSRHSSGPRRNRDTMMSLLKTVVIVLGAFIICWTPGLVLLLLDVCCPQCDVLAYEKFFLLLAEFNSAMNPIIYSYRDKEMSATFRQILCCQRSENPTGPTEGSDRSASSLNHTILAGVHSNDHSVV
PROTOCOL SUMMARY: Inhibition of LPA-induced calcium transients in RH7777 rat hepatoma cells expressing LPA1 receptor
Type: functional, cell-based
One number for each entry, in µM.

[
  {
    "COMPOUND": "CCCCCCCCCCCCCCOP(=O)(O)O [PHOSPHORIC ACID MONOTETRADECYL ESTER]",
    "IC50, µM": 2.3
  },
  {
    "COMPOUND": "Cc1noc(-c2ccc(CSCCC(=O)O)cc2)c1NC(=O)OC(C)c1ccccc1Cl (stereo not drawn)",
    "IC50, µM": 0.762
  },
  {
    "COMPOUND": "CCCCCCCCCCCCOP(=O)(O)O [PHOSPHORIC ACID MONODODECYL ESTER]",
    "IC50, µM": 2.8
  }
]

Return value of IC50 for input `CCCCCCCC(=O)OC[C@H](COP(=O)(O)OP(=O)(O)O)OC(=O)CCCCCCC` , no commentary.
5.5

* * *

Would you mind telling me the reported IC50 of each entry?
TGT: UniProt:Q9UBY5
PROTOCOL SUMMARY: Inhibition of LPA-induced calcium transients in RH7777 rat hepatoma cells expressing LPA3 receptor
Assay type: functional, cell-based
One number for each entry, in nM.

Below, 5 compounds whose answers are already recorded.
[
  {
    "COMPOUND": "CC/C=C/CCCCCCCCOP(O)(O)=S",
    "READOUT UNITS": "nM",
    "IC50": 27
  },
  {
    "COMPOUND": "CCCCC/C=C/CCCOP(=O)(O)O",
    "READOUT UNITS": "nM",
    "IC50": 830
  },
  {
    "COMPOUND": "CCCCCCCCCCP(=O)(O)O",
    "READOUT UNITS": "nM",
    "IC50": 1200
  },
  {
    "COMPOUND": "CCCCCCCC(=O)OC[C@H](COP(=O)(O)OP(=O)(O)O)OC(=O)CCCCCCC",
    "READOUT UNITS": "nM",
    "IC50": 454
  },
  {
    "COMPOUND": "CCCC/C=C/CCCCCCCCOP(=O)(O)O",
    "READOUT UNITS": "nM",
    "IC50": 96
  }
]

// each listed compound needs a value for IC50
1. CCCC/C=C/CCCCCCCCOP(O)(O)=S
2. Cc1noc(-c2ccc(CSCCC(=O)O)cc2)c1NC(=O)OC(C)c1ccccc1Cl (centres undefined)
3. CC/C=C/CCCCCCCCCCOP(=O)(O)O
4. CC/C=C/CCCCCCCCOP(=O)(O)O

1: 28; 2: 301; 3: 103; 4: 32
